Value source: paper PMC6177519

- reported-conditions: human, plasma, po, 60 mg
endpoint-name: Tmax

Request: I have this compound here, Cc1c(OCC(F)(F)F)ccnc1C[S@@+]([O-])c1nc2ccccc2[nH]1 [Dexlansoprazole, dexlansoprazole] , and I need its recorded Tmax.
Result: ~5.5 h

---

- reported-conditions: human, plasma, oral, 60 mg
endpoint-name: Tmax

Request: I have this compound here, Cc1c(OCC(F)(F)F)ccnc1C[S@@+]([O-])c1nc2ccccc2[nH]1 [Dexlansoprazole, dexlansoprazole] , and I need its recorded Tmax.
Result: ~5 h
